Attribution: paper PMC4336329

molecular target: human ether-à-go-go-related gene (hERG) potassium channel (human); assay: primary screen, population patch clamp on CHO cells stably expressing hERG; higher = less effect of the substance
Sequence (Q12809 whole entry, looked up): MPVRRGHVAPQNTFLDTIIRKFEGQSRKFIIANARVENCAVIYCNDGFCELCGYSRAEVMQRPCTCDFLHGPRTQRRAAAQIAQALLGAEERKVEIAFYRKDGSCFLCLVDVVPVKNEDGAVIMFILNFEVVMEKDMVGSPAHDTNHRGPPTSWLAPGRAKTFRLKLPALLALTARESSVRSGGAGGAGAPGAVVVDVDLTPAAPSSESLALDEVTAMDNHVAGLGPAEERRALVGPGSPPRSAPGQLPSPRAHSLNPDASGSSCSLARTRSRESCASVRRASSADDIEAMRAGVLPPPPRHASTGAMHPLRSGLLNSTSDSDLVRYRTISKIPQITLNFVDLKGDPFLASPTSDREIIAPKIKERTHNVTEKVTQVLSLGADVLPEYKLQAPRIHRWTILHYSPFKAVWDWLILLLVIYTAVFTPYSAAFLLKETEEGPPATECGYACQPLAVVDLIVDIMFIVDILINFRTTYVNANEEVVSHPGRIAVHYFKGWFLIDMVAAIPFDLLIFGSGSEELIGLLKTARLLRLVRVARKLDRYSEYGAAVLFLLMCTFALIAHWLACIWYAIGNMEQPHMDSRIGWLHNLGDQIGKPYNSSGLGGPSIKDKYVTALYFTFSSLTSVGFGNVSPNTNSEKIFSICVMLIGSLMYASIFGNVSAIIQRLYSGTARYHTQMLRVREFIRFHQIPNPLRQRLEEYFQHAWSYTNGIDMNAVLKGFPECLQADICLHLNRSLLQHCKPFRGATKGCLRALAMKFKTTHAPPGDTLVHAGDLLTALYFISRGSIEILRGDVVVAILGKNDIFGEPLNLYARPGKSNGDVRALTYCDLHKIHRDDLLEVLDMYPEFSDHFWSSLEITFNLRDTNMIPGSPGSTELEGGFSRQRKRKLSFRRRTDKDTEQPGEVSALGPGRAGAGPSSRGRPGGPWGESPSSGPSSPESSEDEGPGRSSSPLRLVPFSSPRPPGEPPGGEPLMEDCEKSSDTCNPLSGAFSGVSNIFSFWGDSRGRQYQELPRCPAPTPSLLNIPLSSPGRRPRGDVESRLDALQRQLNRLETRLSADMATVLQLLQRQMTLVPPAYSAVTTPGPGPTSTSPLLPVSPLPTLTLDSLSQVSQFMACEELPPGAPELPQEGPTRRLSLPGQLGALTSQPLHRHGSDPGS
Out of some 310,000 compounds screened, about 2,200 (0.71%) showed an effect of 50% or more. The effect is printed as a negative number. This excerpt belongs to a sample that is enriched for strong results.
Item-by-item account of hERG current change (%, negative = inhibition) at 1uM
I only need the number, in %, no unit after it.

For the record CC(C)c1ccc(NC(=O)c2ccc(NC3=NC4CS(=O)(=O)CC4S3)cc2)cc1 (stereo not shown) , what value of hERG current change (%, negative = inhibition) at 1uM is listed for human ether-à-go-go-related gene (hERG) potassium channel (human)?
-0.0656

For the record N=c1c2c(-c3ccccc3)c(-c3ccccc3)n(Cc3ccco3)c2ncn1CCCN1CCOCC1 , what value of hERG current change (%, negative = inhibition) at 1uM is listed for human ether-à-go-go-related gene (hERG) potassium channel (human)?
-91.3

For the record CCOC(=O)c1c(CSC(=N)N)n(-c2ccccc2)c2cc(Br)c(OC(C)=O)cc12 , what value of hERG current change (%, negative = inhibition) at 1uM is listed for human ether-à-go-go-related gene (hERG) potassium channel (human)?
-57.4

For the record O=C(CSc1nc(C(F)(F)F)cc(=O)[nH]1)N1CCCCCC1 , what value of hERG current change (%, negative = inhibition) at 1uM is listed for human ether-à-go-go-related gene (hERG) potassium channel (human)?
5.27

For the record COc1ccccc1N1CCN(CC(=O)Nc2ccc3c(c2)OCCO3)CC1 , what value of hERG current change (%, negative = inhibition) at 1uM is listed for human ether-à-go-go-related gene (hERG) potassium channel (human)?
-0.304

For the record O=C(c1ccc2c(c1)OCO2)C1CCCN(Cc2ccc(OC(F)F)cc2)C1 (stereo not shown) , what value of hERG current change (%, negative = inhibition) at 1uM is listed for human ether-à-go-go-related gene (hERG) potassium channel (human)?
-53

For the record N=c1c2c(-c3ccccc3)c(-c3ccccc3)n(Cc3ccco3)c2ncn1CCCO , what value of hERG current change (%, negative = inhibition) at 1uM is listed for human ether-à-go-go-related gene (hERG) potassium channel (human)?
-34.5

For the record COc1cc(C(=O)Nc2ccc(C)cc2)c2ccccc2n1 , what value of hERG current change (%, negative = inhibition) at 1uM is listed for human ether-à-go-go-related gene (hERG) potassium channel (human)?
7.49

For the record COc1ccc(S(=O)(=O)N2CCOCC2)cc1NC(=O)c1ccc(-n2nc(C)cc2C)cc1 , what value of hERG current change (%, negative = inhibition) at 1uM is listed for human ether-à-go-go-related gene (hERG) potassium channel (human)?
6.25

For the record N=c1c2c(-c3ccccc3)c(-c3ccccc3)n(Cc3ccco3)c2ncn1Cc1ccco1 , what value of hERG current change (%, negative = inhibition) at 1uM is listed for human ether-à-go-go-related gene (hERG) potassium channel (human)?
-26.8

Others:
For the record N=c1c2c(-c3ccccc3)c(-c3ccccc3)n(Cc3ccco3)c2ncn1CCN1CCOCC1 , what value of hERG current change (%, negative = inhibition) at 1uM is listed for human ether-à-go-go-related gene (hERG) potassium channel (human)?
-72.3

For the record Cc1ccc(S(=O)(=O)N2CCN(c3nc(CN4CCCC4)nc4sc(C)c(C)c34)CC2)cc1 , what value of hERG current change (%, negative = inhibition) at 1uM is listed for human ether-à-go-go-related gene (hERG) potassium channel (human)?
-48.8

For the record Cc1ccc(-n2c(SCC(=O)N/N=C/c3ccc(C)s3)nnc2-c2ccccc2)cc1 , what value of hERG current change (%, negative = inhibition) at 1uM is listed for human ether-à-go-go-related gene (hERG) potassium channel (human)?
7.01

For the record O=C(CCS(=O)(=O)Cc1ccccc1F)NCCc1ccc(Cl)cc1 , what value of hERG current change (%, negative = inhibition) at 1uM is listed for human ether-à-go-go-related gene (hERG) potassium channel (human)?
5.86

* * *

molecular target: human ether-à-go-go-related gene (hERG) potassium channel (human); assay: primary screen, population patch clamp on CHO cells stably expressing hERG; higher = less effect of the substance
In all, about 310,000 compounds went through this assay and about 2,200 (0.71%) showed an effect of 50% or more. Effects have a minus sign here. Shown is part of a subset that was picked to be rich in strong results.
reported_endpoint: hERG current change (%, negative = inhibition) at 1uM (%)
I only need the number, in %, no unit after it.

Past entries and their recorded results:
What does the record list as hERG current change (%, negative = inhibition) at 1uM for COc1cc(/C=N\NC(=O)C(C)(C)O)ccc1OC/C=C/c1ccccc1 ?
13

What does the record list as hERG current change (%, negative = inhibition) at 1uM for Cc1csc(NC(=O)C2=NN(c3ccccc3)C(=O)CC2)n1 ?
9.03

What does the record list as hERG current change (%, negative = inhibition) at 1uM for O=C(CCCc1ccccc1)N1CCN(c2ccc([N+](=O)[O-])cc2)CC1 ?
-48.2

What does the record list as hERG current change (%, negative = inhibition) at 1uM for Cc1nnsc1C(=O)N1CCN(c2ccc(C#N)cn2)CC1 ?
3.48

Now look at this entry.
What does the record list as hERG current change (%, negative = inhibition) at 1uM for Cn1ncc2nnn(-c3ccccc3)c(=O)c21 ?
-0.008

* * *

target: human ether-à-go-go-related gene (hERG) potassium channel (human); assay: primary screen, population patch clamp on CHO cells stably expressing hERG; higher = less effect of the substance
The whole screen tested about 310,000 compounds, of which about 2,200 (0.71%) showed an effect of 50% or more. The effect is printed as a negative number. What follows is part of a selection rich in strong results, with near analogues and random picks from the rest.
reported_endpoint: hERG current change (%, negative = inhibition) at 1uM (%)
I only need the number, in %, no unit after it.

For the record O=C(N/N=C/c1cc(Br)cs1)c1ccc2c(c1)OCCO2 , what value of hERG current change (%, negative = inhibition) at 1uM is listed for human ether-à-go-go-related gene (hERG) potassium channel (human)?
9.48

For the record Oc1c(Cl)cc(Cl)cc1C=Nc1ccc2c(c1)OCCO2 , what value of hERG current change (%, negative = inhibition) at 1uM is listed for human ether-à-go-go-related gene (hERG) potassium channel (human)?
16

For the record COc1cc(C(=O)NC2CCN(Cc3nnnn3Cc3ccc(F)cc3)CC2)cc(OC)c1OC , what value of hERG current change (%, negative = inhibition) at 1uM is listed for human ether-à-go-go-related gene (hERG) potassium channel (human)?
3.89

For the record CCC(NS(=O)(=O)c1ccc(C)cc1)C(=O)N1CCOCCOCCOCC1 (centres unmarked) , what value of hERG current change (%, negative = inhibition) at 1uM is listed for human ether-à-go-go-related gene (hERG) potassium channel (human)?
20.3

For the record COCCOc1ccc(C(F)(F)F)cc1NC(=O)c1ccccc1 , what value of hERG current change (%, negative = inhibition) at 1uM is listed for human ether-à-go-go-related gene (hERG) potassium channel (human)?
-2.95

For the record CCOC(=O)c1cnc(SC2CC(=O)N(c3cccc(OC)c3)C2=O)nc1N (centres unmarked) , what value of hERG current change (%, negative = inhibition) at 1uM is listed for human ether-à-go-go-related gene (hERG) potassium channel (human)?
11.3

For the record CCN1CCN(CC(=O)Nc2cc(C(F)(F)F)ccc2OCCOC)CC1.O=C(O)C(=O)O , what value of hERG current change (%, negative = inhibition) at 1uM is listed for human ether-à-go-go-related gene (hERG) potassium channel (human)?
-70.9

For the record COc1ccccc1CN1[C@@H](CC(=O)O)c2cc(F)ccc2S1(=O)=O , what value of hERG current change (%, negative = inhibition) at 1uM is listed for human ether-à-go-go-related gene (hERG) potassium channel (human)?
13.9

Others:
For the record CCC(C(=O)N1CCN(Cc2ccc3c(c2)OCO3)CC1)n1c(=O)[nH]c2ccccc2c1=O (centres unmarked) , what value of hERG current change (%, negative = inhibition) at 1uM is listed for human ether-à-go-go-related gene (hERG) potassium channel (human)?
-8.55

For the record Brc1ccc(C=Nc2ccc3c(c2)OCCOCCOCCO3)s1 , what value of hERG current change (%, negative = inhibition) at 1uM is listed for human ether-à-go-go-related gene (hERG) potassium channel (human)?
-58.3

For the record COc1cc(C(=O)NC2CCCCC2)ccc1OC1CCN(C(C)=O)CC1 , what value of hERG current change (%, negative = inhibition) at 1uM is listed for human ether-à-go-go-related gene (hERG) potassium channel (human)?
11.4

For the record Cc1cc(C)c(S(C)(=O)=O)c(S(=O)c2ccc(Cl)cc2)n1 (centres unmarked) , what value of hERG current change (%, negative = inhibition) at 1uM is listed for human ether-à-go-go-related gene (hERG) potassium channel (human)?
3.19
